# Tested on: SF-539 CNS
# procedure-summary: NCI-60 one-dose screen, 48 h (100 = growth as untreated, 0 = no growth, -100 = all killed)
# measurement-setup: 10 µM unless noted
This is part of a sample that, as a whole, favours compounds with a hit. Of some 83,000 tested, about 20% had one in any assay.
// values below are reported growth
Report as a plain number; the unit % is understood.

Answered examples (5):
compound=Cc1ccc(S(=O)(=O)c2nc(S(=O)(=O)c3ccc(C)cc3)c(N3CCC(O)CC3)s2)cc1 experimental_value=73.7
compound=O=C(CSc1nc2ccccc2c(=O)[nH]1)NCCN1CCCCC1 experimental_value=91
compound="CN(C)c1nc(NCCNS(=O)(=O)c2ccc(C3=Nc4c(N)nc(N)nc4NC(c4ccccc4)C3)cc2)nc(Nc2ccc(F)cc2)n1 (centres undefined)" experimental_value=-7.62
compound=CCCCSc1nc(NCCc2c[nH]c3ccccc23)c(C#N)c(-c2ccc(F)cc2)n1 experimental_value=65.2
compound=O=C(COc1ccc(NC(=O)Nc2ccc(Cl)c(Cl)c2)cc1)N=Nc1c(O)[nH]c2ccc(Cl)cc12 experimental_value=-90.2

Task: # get_value(readout= growth, system= SF-539 CNS) for COc1ccc2c(c1)c(-c1cc3nc(-c4cn(C)c5ncc(Br)cc45)cc(N)n3n1)cn2C
Output: -87.6

Task: # value lookup — system SF-539 CNS, readout growth, item Cn1cc(-c2nc(N)nnc2-c2c[nH]c3ccc(Br)cc23)c2cc(Br)cnc21
Output: -9.44

Task: # returns recorded growth (system: SF-539 CNS) for O=C(O)c1cccc(-c2ccc(/C=N/NC(=O)c3[nH]c4ccc(Br)cc4c3-c3ccccc3)s2)c1
Output: 16.1

Task: Reported growth for SF-539 CNS, given COc1ccc2[nH]cc(-c3nnc(N)nc3-c3cn(C)c4ncc(Br)cc34)c2c1 ?
Output: 66.5
